// Thermal decomposition temperature lookup, one value per entry
Assay: Thermal decomposition temperature (TG/DTA, 2% weight reduction)
Type: physicochemical
Details: point of 2% weight reduction; 10° C./minute from 30° C. to 500° C.; nitrogen atmosphere
Answer format: numeric, °C implied, no suffix.

Identify the reported Thermal decomposition temperature for the following entry. O=C1c2cccc3c(Oc4cccc(C(F)(F)F)c4)ccc(c23)C(=O)N1OS(=O)(=O)C(F)(F)F [Example A-6]
239

Now let's try a different one.
Identify the reported Thermal decomposition temperature for the following entry. COc1cc2c3c(cccc3c1)C(=O)N(OS(=O)(=O)c1c(F)c(F)c(F)c(F)c1F)C2=O [Example A-28]
240
